Target: p110δ/p85α (Homo sapiens, UniProt O00329)
Sequence (O00329 whole entry): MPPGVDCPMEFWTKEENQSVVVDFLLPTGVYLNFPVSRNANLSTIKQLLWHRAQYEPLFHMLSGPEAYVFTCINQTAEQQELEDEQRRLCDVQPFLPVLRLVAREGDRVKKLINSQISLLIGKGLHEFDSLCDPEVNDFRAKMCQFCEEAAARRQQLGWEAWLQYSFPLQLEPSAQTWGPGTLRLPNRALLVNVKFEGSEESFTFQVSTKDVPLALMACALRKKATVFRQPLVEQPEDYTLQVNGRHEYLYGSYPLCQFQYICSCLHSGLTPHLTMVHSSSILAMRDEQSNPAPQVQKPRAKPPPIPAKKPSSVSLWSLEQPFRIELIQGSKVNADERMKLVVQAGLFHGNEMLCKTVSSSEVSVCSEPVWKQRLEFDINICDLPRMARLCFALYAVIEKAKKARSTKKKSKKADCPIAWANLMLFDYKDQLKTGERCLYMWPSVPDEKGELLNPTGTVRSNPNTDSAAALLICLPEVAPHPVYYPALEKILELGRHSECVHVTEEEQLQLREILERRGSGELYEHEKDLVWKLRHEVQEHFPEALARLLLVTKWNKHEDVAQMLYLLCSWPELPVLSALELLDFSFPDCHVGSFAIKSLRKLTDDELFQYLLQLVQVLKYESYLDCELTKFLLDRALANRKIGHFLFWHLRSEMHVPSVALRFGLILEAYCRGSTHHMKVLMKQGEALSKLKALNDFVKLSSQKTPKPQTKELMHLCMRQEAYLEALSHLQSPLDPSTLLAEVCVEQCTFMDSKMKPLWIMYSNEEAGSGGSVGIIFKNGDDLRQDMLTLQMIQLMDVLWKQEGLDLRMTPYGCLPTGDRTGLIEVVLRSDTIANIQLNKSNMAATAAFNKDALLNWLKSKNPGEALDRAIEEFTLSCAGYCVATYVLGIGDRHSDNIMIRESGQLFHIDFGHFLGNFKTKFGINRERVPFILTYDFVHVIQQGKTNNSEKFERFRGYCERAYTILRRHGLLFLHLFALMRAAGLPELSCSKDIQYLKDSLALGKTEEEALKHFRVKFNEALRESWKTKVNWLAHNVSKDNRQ
Sequence (P27986 whole entry partner): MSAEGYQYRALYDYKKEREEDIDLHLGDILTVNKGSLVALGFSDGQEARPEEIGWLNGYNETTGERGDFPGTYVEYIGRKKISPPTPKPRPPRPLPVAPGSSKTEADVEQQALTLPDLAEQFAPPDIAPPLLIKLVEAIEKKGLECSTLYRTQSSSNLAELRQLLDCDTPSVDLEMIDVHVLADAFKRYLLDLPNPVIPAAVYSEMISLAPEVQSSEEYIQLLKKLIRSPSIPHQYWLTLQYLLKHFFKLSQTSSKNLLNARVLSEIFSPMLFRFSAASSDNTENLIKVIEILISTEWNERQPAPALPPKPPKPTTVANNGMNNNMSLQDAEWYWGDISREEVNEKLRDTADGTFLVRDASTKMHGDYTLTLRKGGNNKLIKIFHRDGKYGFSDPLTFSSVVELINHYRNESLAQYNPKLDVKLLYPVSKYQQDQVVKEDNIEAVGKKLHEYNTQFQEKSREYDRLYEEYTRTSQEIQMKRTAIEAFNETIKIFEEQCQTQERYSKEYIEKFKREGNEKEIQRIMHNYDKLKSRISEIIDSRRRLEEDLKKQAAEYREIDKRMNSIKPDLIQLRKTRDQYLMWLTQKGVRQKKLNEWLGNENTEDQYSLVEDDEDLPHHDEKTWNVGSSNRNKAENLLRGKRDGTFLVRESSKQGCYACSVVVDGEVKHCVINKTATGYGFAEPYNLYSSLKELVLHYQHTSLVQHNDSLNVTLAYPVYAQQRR
Assay: Transcreener KINASE Assay, kinase inhibition of p110δ/p85α
Type: biochemical
Conditions: 1 uM test compound
Classify as follows. Reported PI3Kδ IH % @ 1 uM greater than or equal to 90%: 1. Reported PI3Kδ IH % @ 1 uM below: -1.

molecule | class.name
C[S+]([O-])c1n[nH]c2ncnc(N3CCC[C@H]3c3nn4ccc(Cl)c4c(=O)n3-c3ccccc3)c12 (stereo partly shown) | 1
COc1cccc(-n2c([C@@H]3CCN3c3ncnc4[nH]cc(C#N)c34)nn3ccc(Cl)c3c2=O)c1 | 1
CC(=O)c1cnc(N)nc1NC(C)c1cc2ncc(Cl)n2c(=O)n1-c1ccccc1 (stereo not shown) | 1
N#Cc1c[nH]c2ncnc(N3CCOCC3c3nn4ccc(Cl)c4c(=O)n3-c3ccccc3)c12 (stereo not shown) | 1
O=C(c1c[nH]c2ncnc(N3CCC[C@H]3c3nn4ccc(Cl)c4c(=O)n3-c3ccccc3)c12)N1CCOCC1 | -1

----------
Target: p110β/p85α (Homo sapiens, UniProt P42338)
Sequence (P42338 whole entry): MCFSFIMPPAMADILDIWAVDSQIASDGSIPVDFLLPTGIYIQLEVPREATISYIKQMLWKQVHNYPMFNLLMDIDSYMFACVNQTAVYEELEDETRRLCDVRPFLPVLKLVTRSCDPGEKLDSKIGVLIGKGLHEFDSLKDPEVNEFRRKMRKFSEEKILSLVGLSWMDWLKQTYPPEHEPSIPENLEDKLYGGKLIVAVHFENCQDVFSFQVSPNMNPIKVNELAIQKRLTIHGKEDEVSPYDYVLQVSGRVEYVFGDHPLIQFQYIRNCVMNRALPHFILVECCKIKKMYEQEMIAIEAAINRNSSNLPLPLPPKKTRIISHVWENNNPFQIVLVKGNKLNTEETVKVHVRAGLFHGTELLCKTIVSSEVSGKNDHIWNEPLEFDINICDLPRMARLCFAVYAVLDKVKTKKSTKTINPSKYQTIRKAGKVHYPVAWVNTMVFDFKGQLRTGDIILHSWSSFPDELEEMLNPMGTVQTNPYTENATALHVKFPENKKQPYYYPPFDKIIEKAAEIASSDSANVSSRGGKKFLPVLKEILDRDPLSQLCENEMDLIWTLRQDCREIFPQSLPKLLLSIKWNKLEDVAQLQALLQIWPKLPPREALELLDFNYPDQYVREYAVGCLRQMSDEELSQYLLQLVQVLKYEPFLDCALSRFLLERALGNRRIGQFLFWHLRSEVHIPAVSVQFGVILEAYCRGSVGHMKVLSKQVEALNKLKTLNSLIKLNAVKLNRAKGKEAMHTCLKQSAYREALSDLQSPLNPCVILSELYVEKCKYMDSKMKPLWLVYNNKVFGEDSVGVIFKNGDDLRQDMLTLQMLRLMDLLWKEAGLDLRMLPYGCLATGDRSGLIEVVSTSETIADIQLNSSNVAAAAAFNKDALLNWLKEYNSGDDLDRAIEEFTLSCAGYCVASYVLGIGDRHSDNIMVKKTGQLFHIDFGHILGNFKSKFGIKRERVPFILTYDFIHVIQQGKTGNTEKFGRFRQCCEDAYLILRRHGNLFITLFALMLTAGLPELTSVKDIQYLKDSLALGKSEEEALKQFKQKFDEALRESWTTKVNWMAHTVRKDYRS
Sequence (P27986 2-724 partner): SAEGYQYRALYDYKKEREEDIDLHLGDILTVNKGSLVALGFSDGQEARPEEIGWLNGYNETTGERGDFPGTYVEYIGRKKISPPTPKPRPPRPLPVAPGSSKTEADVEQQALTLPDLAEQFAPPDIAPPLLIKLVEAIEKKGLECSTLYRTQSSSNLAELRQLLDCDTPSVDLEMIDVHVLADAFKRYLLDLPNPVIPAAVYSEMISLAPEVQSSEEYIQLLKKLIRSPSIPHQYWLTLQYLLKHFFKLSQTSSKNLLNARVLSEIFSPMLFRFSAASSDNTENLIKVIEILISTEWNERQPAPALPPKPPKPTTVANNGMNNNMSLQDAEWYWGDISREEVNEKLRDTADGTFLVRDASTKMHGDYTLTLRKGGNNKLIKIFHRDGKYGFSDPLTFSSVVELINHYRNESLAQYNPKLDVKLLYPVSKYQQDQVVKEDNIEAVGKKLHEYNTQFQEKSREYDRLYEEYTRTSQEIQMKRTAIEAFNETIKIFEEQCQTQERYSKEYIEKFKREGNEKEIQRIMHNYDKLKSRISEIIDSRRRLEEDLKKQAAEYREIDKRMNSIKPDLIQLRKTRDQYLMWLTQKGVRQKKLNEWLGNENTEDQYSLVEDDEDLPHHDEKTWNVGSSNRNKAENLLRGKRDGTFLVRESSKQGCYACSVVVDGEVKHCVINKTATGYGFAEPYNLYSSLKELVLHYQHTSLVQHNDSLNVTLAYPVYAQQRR
Assay: Transcreener KINASE Assay, kinase inhibition of p110β/p85α
Assay type: biochemical
Conditions: 1 uM test compound
// label = MET if PI3Kβ IH % @ 1 uM is not less than 20%, otherwise NOT MET

mol.smiles | class.name
Nc1nc2c(c(N3C[C@@H](F)C[C@H]3c3nn4ccc(F)c4c(=O)n3-c3ccccc3)n1)C(=O)CCN2 | MET
N#Cc1ncc(-c2c[nH]c3ncnc(N4CC[C@H]4c4nn5ccc(Cl)c5c(=O)n4-c4ccccc4)c23)cn1 | MET
O=c1c2c(Cl)ccn2nc([C@@H]2CCCN2c2ncnc3[nH]cnc23)n1C1CCC1 | MET
Nc1nc(N2CCC[C@H]2c2nn3ccc(Cl)c3c(=O)n2-c2ccccc2)ncc1C(F)(F)F | NOT MET
N#Cc1c[nH]c2ncnc(N3CCC[C@H]3c3nn4ccc(Cl)c4c(=O)n3Cc3ccccc3)c12 | MET
Nc1nc2c(c(N3CC[C@H]3c3nn4ccc(Cl)c4c(=O)n3-c3ccccn3)n1)C(=O)CCN2 | NOT MET
CC(=O)c1cnc(N)nc1N1C[C@H](C)[C@H]1c1nn2ccc(C(F)(F)F)c2c(=O)n1-c1ccccc1 | MET
COCCO[C@H]1C[C@@H](c2nn3ccc(Cl)c3c(=O)n2-c2ccccc2)N(c2ncnc3[nH]cnc23)C1 | MET
N#Cc1c[nH]c2ncnc(N3C[C@@H](F)C[C@H]3c3nn4ccc(F)c4c(=O)n3-c3ccccc3)c12 | MET
CCc1ccn2nc([C@@H]3CCN3c3ncnc4[nH]cc(C#N)c34)n(-c3ccccc3)c(=O)c12 | NOT MET
CS(=O)(=O)c1cccc(-n2c([C@@H]3CCCN3c3ncnc4[nH]cnc34)nn3ccc(Cl)c3c2=O)c1 | MET
O=C1C[C@@H](c2nn3ccc(F)c3c(=O)n2-c2ccccc2)N(c2ncnc3[nH]cnc23)C1 | MET
Cc1nc(N)nc(N2C[C@H](C)[C@H]2c2nn3ccc(F)c3c(=O)n2-c2ccc(F)cc2)c1C#N | MET
Cc1cc(Cl)c2c(=O)n(-c3ccccc3)c([C@@H]3CCN3c3ncnc4[nH]cnc34)nn12 | NOT MET
O=c1c2c(Cl)ccn2nc([C@@H]2CCCN2c2ncnc3[nH]ccc23)n1-c1ccccc1 | MET

----------
Target: p110δ/p85α (Homo sapiens)
Test: Transcreener KINASE Assay, kinase inhibition of p110δ/p85α
Settings: read-out: PI3Kδ IC50
pIC50: −log10 of the molar value.
The following compounds are shown together with reported pIC50 values.

compound | pIC50
CC(=O)c1cnc(N)nc1NC(C)c1cn2ccc(Cl)c2c(=O)n1-c1ccccc1 (stereo not shown) | 8.52
N#Cc1c[nH]c2ncnc(N3CC[C@H]3c3nn4ccc(Br)c4c(=O)n3-c3ccccc3)c12 | 8.10
N#Cc1c(N)ncnc1N1CC[C@H]1c1nn2cccc2c(=O)n1-c1ccccc1 | 6.57
CO[C@@H]1C[C@@H](c2nn3ccc(Cl)c3c(=O)n2-c2ccccc2)N(c2ncnc3[nH]cnc23)C1 | 7.06
CC(=O)c1c[nH]c2ncnc(N3C[C@@H](F)C[C@H]3c3nn4ccc(Cl)c4c(=O)n3-c3cccc(F)c3)c12 | 8.70
N#Cc1c[nH]c2ncnc(N3C[C@@H](F)C[C@H]3c3nn4ccc(Cl)c4c(=O)n3-c3ccccn3)c12 | 9.00
O=c1c2c(Cl)ccn2nc([C@@H]2C[C@H](OCCO)CN2c2ncnc3[nH]cnc23)n1-c1ccccc1 | 9.00

----------
Target: p110δ/p85α (Homo sapiens, UniProt O00329)
Test: Transcreener KINASE Assay, kinase inhibition of p110δ/p85α
Settings: read-out: PI3Kδ IC50
pIC50: −log10 of the molar value.

compound | target.or.test.system | pIC50
COc1ncc(-c2c[nH]c3ncnc(NC(C)c4cc5ncc(Cl)n5c(=O)n4-c4ccccc4)c23)cn1 (stereo not shown) | p110δ/p85α (Homo sapiens, UniProt O00329) | 9.00
CC(=O)c1c[nH]c2ncnc(N3CCC[C@H]3c3nn4ccc(Cl)c4c(=O)n3-c3ccc(F)cc3)c12 | p110δ/p85α (Homo sapiens, UniProt O00329) | 8.40
Cc1nc(N)nc(N2CC[C@H]2c2nn3ccc(Cl)c3c(=O)n2-c2ccccc2)c1Cl | p110δ/p85α (Homo sapiens, UniProt O00329) | 7.47
CC(Nc1nc(N)ncc1C(F)(F)F)c1cc2ncc(Cl)n2c(=O)n1-c1ccccc1 (stereo not shown) | p110δ/p85α (Homo sapiens, UniProt O00329) | 8.52

----------
Target: p110γ (Homo sapiens)
Sequence (P48736 whole entry): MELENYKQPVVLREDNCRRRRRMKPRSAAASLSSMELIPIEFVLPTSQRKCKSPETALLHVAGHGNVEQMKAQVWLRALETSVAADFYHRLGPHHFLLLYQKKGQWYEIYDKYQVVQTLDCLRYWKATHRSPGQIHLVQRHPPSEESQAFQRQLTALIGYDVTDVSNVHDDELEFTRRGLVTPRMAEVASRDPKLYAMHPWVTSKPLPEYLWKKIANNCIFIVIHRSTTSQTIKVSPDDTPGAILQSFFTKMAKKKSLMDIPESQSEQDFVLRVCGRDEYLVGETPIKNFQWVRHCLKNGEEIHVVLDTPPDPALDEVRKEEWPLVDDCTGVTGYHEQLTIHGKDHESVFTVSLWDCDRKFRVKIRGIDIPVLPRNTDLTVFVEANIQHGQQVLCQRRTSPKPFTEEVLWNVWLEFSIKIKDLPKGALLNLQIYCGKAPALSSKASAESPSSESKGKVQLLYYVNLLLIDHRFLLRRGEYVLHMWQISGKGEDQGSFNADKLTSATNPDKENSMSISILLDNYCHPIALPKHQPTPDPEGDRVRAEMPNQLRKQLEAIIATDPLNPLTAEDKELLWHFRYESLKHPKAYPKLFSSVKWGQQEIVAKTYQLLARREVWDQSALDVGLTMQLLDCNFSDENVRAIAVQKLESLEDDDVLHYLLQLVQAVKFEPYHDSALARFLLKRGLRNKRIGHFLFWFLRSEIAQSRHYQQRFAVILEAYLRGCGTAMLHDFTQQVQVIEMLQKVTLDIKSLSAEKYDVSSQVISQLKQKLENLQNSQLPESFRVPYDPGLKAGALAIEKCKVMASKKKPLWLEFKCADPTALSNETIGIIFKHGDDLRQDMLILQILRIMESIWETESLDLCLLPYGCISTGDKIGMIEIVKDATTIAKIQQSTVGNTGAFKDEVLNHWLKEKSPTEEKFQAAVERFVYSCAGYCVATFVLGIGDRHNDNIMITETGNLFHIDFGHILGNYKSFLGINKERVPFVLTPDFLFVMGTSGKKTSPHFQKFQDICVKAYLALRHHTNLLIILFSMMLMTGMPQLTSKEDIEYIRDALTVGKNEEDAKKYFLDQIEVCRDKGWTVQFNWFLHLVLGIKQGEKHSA
property.measured: IC50 (nM)

molecule | property.measured | measured
Nc1nc(N2CCC[C@H]2c2nn3ccc(Cl)c3c(=O)n2-c2ccccc2)c2cccn2n1 [Compound 331] | IC50 | 147
C[C@H]1CN(c2nc(N)ncc2C#N)[C@@H]1c1nn2ccc(C(F)(F)F)c2c(=O)n1-c1ccccc1 [Compound 490] | IC50 | 15
CC(Nc1ncnc2[nH]cnc12)c1cc2cccn2c(=O)n1-c1ccccc1 (stereo not shown) [Compound 119] | IC50 | 239
O=c1c2c(Cl)ccn2nc([C@@H]2CCCN2c2ncnc3[nH]cnc23)n1Cc1ccccn1 [Compound 68] | IC50 | 78

----------
Molecular target: p110β/p85α (Homo sapiens)
Experiment: Transcreener KINASE Assay, kinase inhibition of p110β/p85α
Type: biochemical
Conditions: 1 uM test compound
Measured PI3Kβ IH % @ 1 uM by item
property.measured: PI3Kβ IH % @ 1 uM (%)

compound | measured
CC(=O)c1c[nH]c2ncnc(NC(C)c3cc4ncc(Cl)n4c(=O)n3-c3ccccc3)c12 (stereo not shown) [Compound 287] | 73.9
Nc1nc2c(c(N3CCC[C@H]3c3nn4ccc(F)c4c(=O)n3-c3ccccc3)n1)C(=O)CCN2 [Compound 249] | 24.8
CC(Nc1ncnc2[nH]cnc12)c1cn2ccc(Cl)c2c(=O)n1-c1cccc(F)c1 (stereo not shown) [Compound 75] | 69.3
Cc1nc(N)nc(N2CC[C@H]2c2nn3ccc(Cl)c3c(=O)n2-c2ccc(F)cc2)c1C#N [Compound 442] | 76.1
O=c1c2c(F)ccn2nc([C@@H]2CCCN2c2ncnc3[nH]cnc23)n1-c1cccc(F)c1 [Compound 191] | 56.8
CC(Nc1ncnc2[nH]cc(F)c12)c1cc2ncc(Cl)n2c(=O)n1-c1ccccc1 (single isomer, unassigned) [Compound 451] | 4.2
O=c1c2c(Cl)ccn2nc([C@@H]2CCCN2c2ncnc3[nH]cc(C4=NCCO4)c23)n1-c1ccccc1 [Compound 303] | 92.7

----------
Biological target: p110β/p85α (Homo sapiens, UniProt P42338)
Assay: Transcreener KINASE Assay, kinase inhibition of p110β/p85α
Format: biochemical
Conditions: 1 uM test compound
Measured PI3Kβ IH % @ 1 uM of individual entries

compound | PI3Kβ IH % @ 1 uM (%)
N#Cc1cc2nc(N)nc(N3CCC[C@H]3c3nn4ccc(Cl)c4c(=O)n3-c3ccccc3)n2n1 | 5.5
Cc1nc(N)nc(N2CC[C@H]2c2nn3ccc(Cl)c3c(=O)n2-c2cccc(F)c2)c1C#N | 56.2
C[C@H]1CCN(c2ncnc3[nH]cnc23)C1c1nn2ccc(Cl)c2c(=O)n1-c1ccccc1 (stereo partly shown) | 83.4
CNc1ncnc(N2CCC[C@H]2c2nn3ccc(Cl)c3c(=O)n2-c2ccccc2)n1 | 28.2

----------
Target: p110δ/p85α (Homo sapiens, UniProt O00329)
Assay: Transcreener KINASE Assay, kinase inhibition of p110δ/p85α
Conditions: read-out: PI3Kδ IC50
pIC50: −log10 of the molar value.
Decide using pIC50: a value greater than or equal to 8 is Condition met, a smaller one is Condition not met.

compound | class.name
N#Cc1cnc(N)nc1N1CCC[C@H]1c1nn2ccc(F)c2c(=O)n1-c1ccccc1 | Condition met
COc1cccc(-n2c([C@@H]3CCN3c3ncnc(N)c3C#N)nn3ccc(Cl)c3c2=O)c1 | Condition not met
Cc1nc(N)nc(N2CC[C@H]2c2nn3ccc(F)c3c(=O)n2-c2ccccc2)c1C#N | Condition met
N#Cc1c[nH]c2ncnc(N3CC(F)(F)C[C@H]3c3nn4ccc(Cl)c4c(=O)n3-c3ccccc3)c12 | Condition met
CCC(Nc1ncnc2[nH]cnc12)c1cn2ccc(Cl)c2c(=O)n1-c1cccc(F)c1 (stereo not drawn) | Condition met
COc1ncc(-c2n[nH]c3ncnc(N4CC[C@H]4c4nn5ccc(Cl)c5c(=O)n4-c4ccccc4)c23)cn1 | Condition met
O=c1c2c(Cl)ccn2nc([C@@H]2CCCN2c2ncnc3[nH]cnc23)n1CCN1CCOCC1 | Condition not met
N#Cc1c[nH]c2ncnc(N3CCC[C@H]3c3nn4ccc(Cl)c4c(=O)n3CCN3CCOCC3)c12 | Condition met
CC(Nc1ncnc2[nH]cc(S(C)(=O)=O)c12)c1cn2ccc(Cl)c2c(=O)n1-c1ccccc1 (stereo not drawn) | Condition not met
Nc1ncc(-c2c[nH]c3ncnc(N4CC[C@H]4c4nn5ccc(F)c5c(=O)n4-c4ccccc4)c23)cn1 | Condition met
O=C1C[C@@H](c2nn3ccc(Cl)c3c(=O)n2-c2ccccc2)N(c2ncnc3[nH]cnc23)C1 | Condition met
C[C@H]1CN(c2ncnc3[nH]cc(C#N)c23)[C@@H]1c1nn2ccc(F)c2c(=O)n1-c1ccccc1 | Condition met
Nc1nc(N2CCC[C@H]2c2nn3ccc(Cl)c3c(=O)n2-c2ccccc2)n2nccc2n1 | Condition met
CC(=O)c1cnc(N)nc1N1CC(C)(C)[C@H]1c1nn2ccc(Cl)c2c(=O)n1-c1ccccc1 | Condition not met
C[C@H]1CN(c2ncnc3[nH]cc(C#N)c23)C1c1nn2ccc(Cl)c2c(=O)n1-c1ccccc1 (stereo partly drawn) | Condition met
N#Cc1c(N)ncnc1N1CC[C@H]1c1nn2ccc(Br)c2c(=O)n1-c1ccccc1 | Condition not met
COCc1ccn2nc([C@@H]3CCCN3c3ncnc4[nH]cnc34)n(-c3ccccc3)c(=O)c12 | Condition not met
N#C[C@H]1C[C@@H](c2nn3ccc(Cl)c3c(=O)n2-c2ccccc2)N(c2ncnc3[nH]cnc23)C1 | Condition met
CC(=O)c1cnc(N)nc1N1CC(=O)C[C@H]1c1nn2ccc(F)c2c(=O)n1-c1ccccc1 | Condition not met
CC(Nc1ncnc2[nH]cc(C#N)c12)c1cc2ncc(Cl)n2c(=O)n1-c1cccc(F)c1 (stereo not drawn) | Condition not met
CC(=O)c1c[nH]c2ncnc(N3CC[C@H]3c3nn4ccc(Cl)c4c(=O)n3-c3ccc(F)cc3)c12 | Condition not met
Cc1ccn2cc(C(C)Nc3ncnc4[nH]cnc34)n(-c3ccccc3)c(=O)c12 (stereo not drawn) | Condition met
Cc1ccn2cc(C(C)Nc3ncnc4[nH]cc(C#N)c34)n(-c3ccccc3)c(=O)c12 (stereo not drawn) | Condition met
N#Cc1c[nH]c2ncnc(N3C[C@@H](F)C[C@H]3c3nn4ccc(Cl)c4c(=O)n3-c3cccc(F)c3)c12 | Condition met
CC(Nc1nc(N)ncc1C#N)c1cn2ccc(Cl)c2c(=O)n1-c1ccccc1 (stereo not drawn) | Condition met
N#Cc1c[nH]c2ncnc(N3CCC[C@H]3c3nn4ccc(Cl)c4c(=O)n3-c3ccccn3)c12 | Condition met
CC(=O)c1c(N)nc(N)nc1N1CCC1c1nn2ccc(Cl)c2c(=O)n1-c1ccccc1 (stereo not drawn) | Condition not met
Nc1ccc(-c2c[nH]c3ncnc(N4CCOC[C@H]4c4nn5ccc(Cl)c5c(=O)n4-c4ccccc4)c23)cn1 | Condition met
